Tested on: cerebellar granule neurons (CGN) culture
Test: NO-induced cell death on cultured neurons
Assay type: cell-based
Settings: Neuron, cell death induced by nitric oxide, concentration-dependent, read-out: IC50 for blocking nitric oxide-induced neuron cell death
Assay metric: IC50

[Q] For the compound O=C(/C=C/c1ccc(O)c(O)c1)OCCc1ccccc1 , what IC50 is on record?
[A] ~1000 nM
